Please go through the items and note down their growth inhibition.
- ASSAY_NOTES: NCI Yeast Anticancer Drug Screen. Data for the sgs1 mgt1 strain (AID 161);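 note: 0% = growth of cultures given vehicle only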
- MEASUREMENT_SETUP: S. cerevisiae sgs1 mgt1 strain, hits give high values; at 50.0 µM unless noted
This is part of a sample that, as a whole, favours compounds with a hit. Of some 79,000 tested, about 15% had one in any assay.
A number alone suffices; assume %.

For the compound CC(C)N1C(=O)c2cccc(Cl)c2C1=O (tested in a mixture with another compound) , what growth inhibition is on record?
37.3

Field entry: O=C1C(Br)=C[C@H]2C3C=CC(Br)(C3=O)[C@@H]12 (stereo not given in full)
14.9

Field entry: CC1=Nc2ccccc2C12C(c1ccccc1)C(c1ccccc1)C(=O)N1c3ccccc3CC12 (stereo not given)
-33.6

Field entry: O=C1CCC(=O)N1C(c1ccccc1)c1ccccc1
5.85

Field entry: Cc1ccc(Cl)cc1NC(=O)c1ccccc1
-8.5

###

- ASSAY_NOTES: NCI Yeast Anticancer Drug Screen. Data for the mlh1 rad18 strain (AID 175)
- MEASUREMENT_SETUP: S. cerevisiae mlh1 rad18 strain growth inhibition, hits give high values; at 50.0 µM unless noted
Compounds without any hit were thinned out: in the full panel of roughly 79,000, 15% have a hit.
EXPERIMENTAL_READOUT: growth inhibition (%)
A number alone suffices; assume %.

For the compound CCCCCCOS(=O)(=O)c1ccc(C)cc1 , what growth inhibition is on record?
22.4

Field entry: Cc1cc(O)c(C)cc1O
21.6

Field entry: CCCCOC(=O)c1cccc(C)c1
-0.9

Field entry: C/C(CC1=CCCCC1)=N\NC(N)=O
-12.7

Field entry: COC1=C2CC(C)CC(OC)C(O)C(C)/C=C(\C)C(OC(N)=O)C(OC)/C=C\C=C(/C)C(=O)NC(=C(/C=N/N(C)C)C1=O)C2=O (stereo unspecified)
-25.8

Field entry: Cc1ccc(Nc2cc(C(=O)O)c(Nc3ccc(C)cc3)cc2C(=O)O)cc1
6.9

Field entry: O=C(O)C1CCc2ccccc21 (stereo unspecified)
-20.1

Field entry: CCC[N+](C)(C)CCC#N
5.25

Field entry: CC(C)NC(=O)OCc1c(COC(=O)NC(C)C)c(-c2ccc(F)cc2F)n2c1CCC2
-12.7

Field entry: CCCc1cc2c(cc1CC#N)OCO2
17.6

Field entry: Cc1cc(OC(=O)c2c(-c3c(Cl)cccc3Cl)noc2C)n(-c2ccc(NC(=O)c3c(-c4c(Cl)cccc4Cl)noc3C)cc2)n1
25.9

Field entry: CC1OC(Cl)CC(NC(=O)C(F)(F)F)C1OC(=O)C(F)(F)F (stereo unspecified)
13.9

Field entry: Oc1ccccc1C1CCCC1
-2.45

Field entry: O=C(O)c1ccccc1-c1ccccc1
-1.9

Field entry: O=C1c2ccccc2C(=O)N1c1ccc(OCCN2CCCCC2)cc1
18.4

Field entry: O=C1c2ccccc2C(=O)c2cc3nc4c5ccccc5c5ccccc5c4nc3cc21
-13.6

Field entry: Cc1ccc(S(=O)(=O)N2C(=O)CCC2C(=O)O)cc1 (stereo unspecified)
2.7

Field entry: O=C(Oc1cccc(OC(=O)c2ccccc2O)c1)c1ccccc1O
-5.35

Field entry: CCC(C)(C)NC(N)=O
23.7

Field entry: CC1=CC(C)(C)N(C)C(N)=N1
-1.75

Field entry: NC(N)=NS(=O)(=O)c1ccc(NCc2c3ccccc3nc3ccccc23)cc1
38.1

Field entry: COC(=O)[C@]1(c2ccc(N(C)C)cc2OC)C[C@@H]2CCCN(CCc3c1[nH]c1ccccc31)C2
21.6

Field entry: CCOP(=O)(OCC)/C(=C\n1c(=S)[nH]c2cc(C)ccc21)C(=O)OC
31.3

Field entry: CCC(CC)/C(=N/Nc1ccc([N+](=O)[O-])cc1[N+](=O)[O-])C1=CCCCC1
-15.7

Field entry: O=C(O)C1C2CC=CCC21 (stereo unspecified)
16.6

Field entry: CCN(CC)CC(=O)Nc1cc(Cl)ccc1OC
-6.25

Field entry: CC1(C)N=C(N)N=C(N)N1CCCOc1ccc(N)cc1
1.1

Field entry: O=c1[nH]cnc2c1ncn2C1CCCO1 (stereo unspecified)
0.9

Field entry: CCCCCC(=O)OCCSCCOC(=O)CCCCC
0.2

Field entry: Cn1c(=O)[nH]c2ccc(Cl)cc2c1=O
5.85

Field entry: COC(=O)C(NC(=O)c1ccccc1)C(c1ccc(Cl)cc1)P(=O)(OC)OC (stereo unspecified)
-17.9

Field entry: CN(C)/C=N/n1c2ccccc2c2ccccc21
14.8

Field entry: Nc1ncc2c(=O)[nH][nH]c(=O)c2n1
-5.5

Field entry: NN1CCN(CCO)CC1
21.6

Field entry: O=P(O)(O)OC1OC(CO)C(O)C(O)C1O (stereo unspecified)
-4.75

Field entry: CCOC(=O)c1ccc(NC(=S)Nc2ncccc2C)cc1
21.2

Field entry: Cc1sc2ccccc2[n+]1CCC(=O)O
-7.65

Field entry: Cc1[nH]c(N)nc(=S)c1CCCNc1ccccc1
26.2

Field entry: CCN1CCCC(C(=O)O)(c2ccccc2)CC1 (stereo unspecified)
2

Field entry: CCC1(CC)SC=C(C)NC1=O
6.75

Field entry: CCN(CC)CCNc1c(OC)c(OC)cc2nccnc12
-1.75

Field entry: COC(=O)CCn1cnc2c(SC)ncnc21
-12.7

Field entry: CCCCCCCCCCCCCCCCCCCCCCCCCCBr
11.7

Field entry: CC(=O)Nc1cc(C)cc(CO)c1C
-26.6

Field entry: Cc1c(Cl)cccc1NC(=O)C(=O)c1c(O)c2ccc(O)cc2oc1=O
5.35

Field entry: CN(C)c1ccc(C(=O)Cc2ccc3ccccc3n2)cc1
98.9

Field entry: O=c1[nH]c(=O)c2[nH]c(Br)nc2[nH]1
3.85

Field entry: CSc1nc(C)cc(=O)[nH]1
-13.3

Field entry: CN(C)Cc1cc(C(=O)/C=C/c2ccc(Cl)c(Cl)c2)cc(CN(C)C)c1O
-3.3

Field entry: CC1(C)CC(=O)C=C(NCc2ccccc2)C1
11.2

Field entry: COC(=O)c1ccc(Oc2nc3ccc(C(F)(F)F)cc3nc2-c2ccccc2)cc1
-19.1

###

Please go through the items and note down their growth inhibition.
- ASSAY_NOTES: NCI Yeast Anticancer Drug Screen. Data for the mlh1 rad18 strain (AID 175)
- MEASUREMENT_SETUP: S. cerevisiae mlh1 rad18 strain growth inhibition, hits give high values; at 50.0 µM unless noted
The panel holds about 79,000 compounds, 15% with a hit somewhere; the sample as a whole holds those more often.
A number alone suffices; assume %.

For the compound O=C(CNC(=O)C(CSC(c1ccccc1)c1ccccc1)NC(=O)C(CSC(c1ccccc1)(c1ccccc1)c1ccccc1)NC(=O)OCc1ccccc1)OC(c1ccccc1)c1ccccc1 (stereo not drawn) , what growth inhibition is on record?
20.7

Field entry: CCOC(=O)C(NC(=O)CC)(Nc1ccc(S(=O)(=O)Nc2nc(C)cc(C)n2)cc1)C(F)(F)F (stereo not drawn)
7.65

Field entry: CC(C)C1CCC2C(CCC3C(C)(C(=O)O)CCCC23C)C1 (stereo not drawn)
25.2

Field entry: CCOC(=O)c1sc2c(c1OC(=O)c1ccc(OC)cc1)c(=O)n(-c1ccccc1)c(=S)n2-c1ccccc1
38.4

Field entry: O=C1CCC2OC(=O)C3CCCC1C23 (stereo not drawn)
-14.2

Field entry: COC(=O)N/N=C(/CCC(=O)Nc1ccc(C)c(C)c1)CC(=O)C(C)(C)C
-1.9

Field entry: Nc1ccccc1S(=O)(=O)Nc1ccccc1
21.4

Field entry: Clc1ccc(/C=C/c2nc(Cl)c(-c3ccc(Cl)cc3)c(Cl)n2)cc1
5.3

Field entry: CCn1c(=O)n(Cc2ccccc2)c(=O)c2ccccc21
30.3

Field entry: O=c1[nH]c(Br)nc2c(N3CCCCC3)c[nH]c12
11.6

Field entry: CCSCCC#N
-10.2

Field entry: CC(C)(C)OC(=O)COc1ccc(NC(=O)COc2ccc(Cl)c(Cl)c2)cc1
-8.6

Field entry: COC1(OC)C(C#N)=C(c2ccccc2)C1(OC)OC
-6.8

Field entry: CC(=O)N1C(=O)C2(c3ccccc31)c1cccc3c1C(=C1C(=O)OC(=O)C12)C(=O)N3C(C)=O (stereo not drawn)
48.1

Field entry: O=C(C[n+]1ccccc1CO)c1ccc(-c2ccccc2)cc1
5.4

Field entry: COC(=O)C(CCC1(C)OCCO1)C(C)=O (stereo not drawn)
-13

Field entry: CCc1c(CC)c(CC)c(CC)c(CC)c1CC
-31.8

Field entry: OCC1OC(OC2C(CO)OC(O)C(O)C2O)C(O)C(O)C1O (stereo not drawn)
13.7

Field entry: O=C(O)CCNc1ccc(Cl)cc1[N+](=O)[O-]
25.8

Field entry: CC(C)(C)C(C)(C)SSC(C)(C)C(C)(C)C
25.5

Field entry: O=C1CCC2OC3CCC(=O)N3CN12 (stereo not drawn)
-3.6

Field entry: CCCCCCCCCC=O
6.8

Field entry: COc1ccc2nc3cc([N+](=O)[O-])ccc3c(NCCCN(CCO)CCO)c2c1
2.6
